- TARGET: Delta-type opioid receptor (Homo sapiens, UniProt P41143)
- Sequence (P41143 whole entry): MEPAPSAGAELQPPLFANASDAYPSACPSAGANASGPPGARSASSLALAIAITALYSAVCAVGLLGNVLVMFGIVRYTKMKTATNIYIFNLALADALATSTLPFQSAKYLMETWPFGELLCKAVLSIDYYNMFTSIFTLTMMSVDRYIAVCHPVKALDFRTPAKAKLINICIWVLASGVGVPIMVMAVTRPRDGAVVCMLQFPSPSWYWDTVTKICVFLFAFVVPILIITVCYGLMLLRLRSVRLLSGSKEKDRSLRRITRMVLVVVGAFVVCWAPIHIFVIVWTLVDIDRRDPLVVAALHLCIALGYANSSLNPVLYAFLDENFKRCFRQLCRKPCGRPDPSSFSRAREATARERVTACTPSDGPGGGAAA
- ASSAY_COMMENT: Inhibition of human DOR expressed in CHO cell membrane assessed as inhibition relative to control
- Type: cell-based
- Parameters: concentration or dose not given beside the values
- STUDY_CONDITIONS: filed as agonist, concentration not given here
Kindly supply the reported inhibition values for the records listed here.
I only need the number, in %, no unit after it.

Input line: // returns reported inhibition for input COc1cccc(C2(O)CCN(C(=O)C3(c4ccccc4)CCCCC3)CC2CN(C)C)c1 (stereo unspecified)
Output line: 42.1

Input line: Similarly, COc1cccc(C2(O)CCN(C(=O)c3cc(F)c(F)cc3F)CC2CN(C)C)c1 (stereo unspecified) ?
Output line: 7

Input line: Also check COc1cccc(C2(O)CCN(C(=O)Cc3ccc(Cl)cc3)CC2CN(C)C)c1 (stereo unspecified)
Output line: 0

Input line: One more compound: CN(C)C[C@H]1CCCC[C@]1(O)c1cccc(O)c1
Output line: 19

Input line: Repeat for the following compound: COc1cccc(C2(O)CCN(C(=O)Cc3cccc(OC(F)(F)F)c3)CC2CN(C)C)c1 (stereo unspecified)
Output line: 13.2

Input line: Likewise for COc1cccc(C2(O)CCN(C(=O)Cn3cnnn3)CC2CN(C)C)c1 (stereo unspecified) ?
Output line: 8.9

Input line: Ok, now COc1cccc(C2(O)CCN(C(=O)Cc3ccsc3)CC2CN(C)C)c1 (stereo unspecified)
Output line: 14.7

Input line: Lookup COc1cccc(C2(O)CCN(C(=O)Cc3cc(F)c(F)cc3F)CC2CN(C)C)c1 (stereo unspecified)
Output line: 22.7

Input line: Let us now turn to COc1cccc(C2(O)CCN(C(=O)Cc3cccs3)CC2CN(C)C)c1 (stereo unspecified)
Output line: 18.7

Input line: What do you get for COc1cccc([C@]2(O)CCN(C(=O)Cc3cc(F)c(F)cc3F)C[C@H]2CN(C)C)c1 ?
Output line: 26.6

Input line: Same question for COc1cccc(C2(O)CCN(C(=O)Cc3cccc(C#N)c3)CC2CN(C)C)c1 (stereo unspecified) please.
Output line: 25.4

###

- Organism: Homo sapiens
- ASSAY_COMMENT: Selectivity ratio of Ki for DOR (unknown origin) to Ki for MOR (unknown origin)
Hi! Just check whether Selectivity ratio is below 70. Below gives label 1, equal or above gives label 0.

Input line: Given the entry CN(C)C[C@@H]1CN(C(=O)Cc2cc(F)c(F)cc2F)CC[C@@]1(O)c1cccc(O)c1 , would its reported Selectivity ratio be below 70?
Output line: label 0

Input line: # iterate: CN(C)CC1CN(C(=O)Cc2cc(F)c(F)cc2F)CCC1(O)c1cccc(O)c1 (stereo unspecified)
Output line: label 0

Input line: Check CN(C)CC1CN(C(=O)Cc2cccc(OC(F)(F)F)c2)CCC1(O)c1cccc(O)c1 (stereo unspecified) too.
Output line: label 1

Input line: Another compound: COc1cccc(C2(O)CCN(C(=O)Cc3cc(C(F)(F)F)cc(C(F)(F)F)c3)CC2CN(C)C)c1 (stereo unspecified)
Output line: label 0

Input line: // query: COc1cccc(C2(O)CCN(C(=O)Cc3ccc(Cl)c(Cl)c3)CC2CN(C)C)c1 (stereo unspecified)
Output line: label 1

Input line: Also, COc1cccc(C2(O)CCN(C(=O)C3(c4ccccc4)CCC3)CC2CN(C)C)c1 (stereo unspecified) please.
Output line: label 1

Input line: Also, Cc1ccccc1CC(=O)N1CCC(O)(c2cccc(O)c2)C(CN(C)C)C1 (stereo unspecified) please.
Output line: label 1

Input line: Likewise for CN(C)CC1CN(C(=O)CCc2ccccc2)CCC1(O)c1cccc(O)c1 (stereo unspecified) ?
Output line: label 0

Input line: Now consider CN(C)CC1CN(C(=O)Cc2ccc(OC(F)(F)F)cc2)CCC1(O)c1cccc(O)c1 (stereo unspecified) .
Output line: label 1

Input line: Next up: CN(C)CC1CN(C(=O)CCc2cccc(C(F)(F)F)c2)CCC1(O)c1cccc(O)c1 (stereo unspecified)
Output line: label 0

Input line: Please do the same for CN(C)C[C@H]1CN(C(=O)Cc2cc(F)c(F)cc2F)CC[C@]1(O)c1cccc(O)c1 as well.
Output line: label 1

Input line: Proceed to COc1cccc(C2(O)CCN(CCc3cccc(C(F)(F)F)c3)CC2CN(C)C)c1 (stereo unspecified)
Output line: label 1

Input line: Then this compound: COc1cccc(C2(O)CCN(C(=O)Cc3cccc4ccccc34)CC2CN(C)C)c1 (stereo unspecified)
Output line: label 1

Input line: Repeat for the following compound: COc1cccc(C2(O)CCN(C(=O)Cc3ccc4ccccc4c3)CC2CN(C)C)c1 (stereo unspecified)
Output line: label 0

Input line: Query CN(C)CC1CN(CCc2cccc(C(F)(F)F)c2)CCC1(O)c1cccc(O)c1 (stereo unspecified) next
Output line: label 0
